- SYSTEM_UNDER_TEST: Stp1 (UniProt B3LFK1)
- Sequence: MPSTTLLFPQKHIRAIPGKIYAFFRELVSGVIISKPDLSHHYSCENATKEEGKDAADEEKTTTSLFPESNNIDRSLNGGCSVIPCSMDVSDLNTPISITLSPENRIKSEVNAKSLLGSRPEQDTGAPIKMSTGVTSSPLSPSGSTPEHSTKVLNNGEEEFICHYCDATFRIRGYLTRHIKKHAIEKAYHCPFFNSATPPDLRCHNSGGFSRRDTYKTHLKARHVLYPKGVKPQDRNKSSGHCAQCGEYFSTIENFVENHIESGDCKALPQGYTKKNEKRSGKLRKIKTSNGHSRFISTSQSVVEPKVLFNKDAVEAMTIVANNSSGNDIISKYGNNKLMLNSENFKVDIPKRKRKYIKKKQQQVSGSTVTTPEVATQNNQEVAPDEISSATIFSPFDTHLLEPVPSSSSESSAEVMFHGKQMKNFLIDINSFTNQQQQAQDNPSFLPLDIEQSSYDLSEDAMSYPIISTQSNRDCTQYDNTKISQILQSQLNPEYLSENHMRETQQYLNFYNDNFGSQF
- EXPERIMENT: PBM E-score (8-mer binding enrichment) (E-score (-0.5 to 0.5)); higher = stronger / more preferred TF binding
- RUN_CONDITIONS: protein concentration: 200 nM; construct: GST-full length
The full ranking holds about 33,000 sequences; the median of “E-score (-0.5 to 0.5)” is about -0.016, and the highest 2% start at about 0.32. What follows is part of a selection rich in the highest values, with near analogues and random picks from the rest.
OUTCOME_MEASURE: PBM E-score
Give the figure only, with no unit attached.

Reference set, count: 4
>>> measurement("AGCGCGAA")
0.0676
>>> measurement("GATGCCCC")
-0.129
>>> measurement("GGCGCGAC")
0.36
>>> measurement("CTGGCACA")
-0.187

Request: Look up PBM E-score: CGAGGCAC
Result: 0.384

Request: Looking for the measured PBM E-score of CAAGGCGC , can you help?
Result: 0.4

###

- SYSTEM_UNDER_TEST: Stp1 (UniProt B3LFK1)
- Sequence: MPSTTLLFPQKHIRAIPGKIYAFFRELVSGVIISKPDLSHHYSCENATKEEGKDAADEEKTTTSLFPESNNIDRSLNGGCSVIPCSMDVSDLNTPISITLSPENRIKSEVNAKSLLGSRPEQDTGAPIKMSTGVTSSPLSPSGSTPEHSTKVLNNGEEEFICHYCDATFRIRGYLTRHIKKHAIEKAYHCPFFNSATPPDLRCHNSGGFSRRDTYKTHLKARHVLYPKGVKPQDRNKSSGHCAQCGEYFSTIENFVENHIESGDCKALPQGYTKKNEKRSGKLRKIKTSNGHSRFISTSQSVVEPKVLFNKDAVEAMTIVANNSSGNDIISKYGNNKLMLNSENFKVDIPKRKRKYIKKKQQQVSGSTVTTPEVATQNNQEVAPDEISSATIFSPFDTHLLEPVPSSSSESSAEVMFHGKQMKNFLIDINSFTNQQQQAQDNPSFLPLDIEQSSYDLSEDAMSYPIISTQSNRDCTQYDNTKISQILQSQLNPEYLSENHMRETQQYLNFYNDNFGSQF
- EXPERIMENT: PBM E-score (8-mer binding enrichment) (E-score (-0.5 to 0.5)); higher = stronger / more preferred TF binding
- RUN_CONDITIONS: protein concentration: 200 nM; construct: GST-full length
In all, about 33,000 sequences were measured (“E-score (-0.5 to 0.5)”: median about -0.016, highest 2% from about 0.32 on). Shown is part of a subset that was picked to be rich in the highest values.
Binned PBM E-score; ranges: bin 1: < -0.03; bin 2: ≥ -0.03 and < 0.1; bin 3: ≥ 0.1

>>> class_name("ACCGCGTA")
"bin 2"

Request: In plain terms, what class is TTCGGCAA ?
Result: bin 2

Request: Class label required: CCCGCGCA
Result: bin 1

Request: // bin(item) where item = CACCTATG
Result: bin 1

Request: Which category does the recorded PBM E-score put AGGCGTCA in?
Result: bin 3

Request: Where would CACTCTCG land among the classes by reported PBM E-score?
Result: bin 1

###

- SYSTEM_UNDER_TEST: Stp1 (UniProt B3LFK1)
- Sequence: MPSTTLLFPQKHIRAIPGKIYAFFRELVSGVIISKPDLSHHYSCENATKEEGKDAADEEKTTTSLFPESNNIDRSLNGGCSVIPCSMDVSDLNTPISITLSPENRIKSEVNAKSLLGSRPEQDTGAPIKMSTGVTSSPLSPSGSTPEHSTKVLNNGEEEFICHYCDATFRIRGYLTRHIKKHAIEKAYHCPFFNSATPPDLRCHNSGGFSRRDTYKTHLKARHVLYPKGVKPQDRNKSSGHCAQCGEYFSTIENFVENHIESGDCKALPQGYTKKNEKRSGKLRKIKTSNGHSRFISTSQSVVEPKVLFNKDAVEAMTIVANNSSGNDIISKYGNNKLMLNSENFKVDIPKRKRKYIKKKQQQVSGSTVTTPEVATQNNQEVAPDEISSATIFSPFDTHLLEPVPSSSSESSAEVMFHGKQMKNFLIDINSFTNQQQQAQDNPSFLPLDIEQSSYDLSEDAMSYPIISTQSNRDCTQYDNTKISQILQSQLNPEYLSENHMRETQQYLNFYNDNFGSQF
- EXPERIMENT: PBM E-score (8-mer binding enrichment) (E-score (-0.5 to 0.5)); higher = stronger / more preferred TF binding
- RUN_CONDITIONS: protein concentration: 200 nM; construct: GST-full length
Whole data set: some 33,000 sequences, median “E-score (-0.5 to 0.5)” near -0.016, cut for the highest 2% near 0.32. For the sample, the highest values were picked, then their nearest neighbours and some sequences at random.
The reader will find reported PBM E-score values listed item by item below.
The answer should be a number; do not append a unit.

Before answering, review these 2 worked examples.
>>> measurement("AAACGGTG")
0.1
>>> measurement("CCGAAATA")
0.0974

Request: Query (sequence): GGCTGAAA ; field requested: PBM E-score
Result: 0.103

###

- SYSTEM_UNDER_TEST: Stp1 (UniProt B3LFK1)
- Sequence: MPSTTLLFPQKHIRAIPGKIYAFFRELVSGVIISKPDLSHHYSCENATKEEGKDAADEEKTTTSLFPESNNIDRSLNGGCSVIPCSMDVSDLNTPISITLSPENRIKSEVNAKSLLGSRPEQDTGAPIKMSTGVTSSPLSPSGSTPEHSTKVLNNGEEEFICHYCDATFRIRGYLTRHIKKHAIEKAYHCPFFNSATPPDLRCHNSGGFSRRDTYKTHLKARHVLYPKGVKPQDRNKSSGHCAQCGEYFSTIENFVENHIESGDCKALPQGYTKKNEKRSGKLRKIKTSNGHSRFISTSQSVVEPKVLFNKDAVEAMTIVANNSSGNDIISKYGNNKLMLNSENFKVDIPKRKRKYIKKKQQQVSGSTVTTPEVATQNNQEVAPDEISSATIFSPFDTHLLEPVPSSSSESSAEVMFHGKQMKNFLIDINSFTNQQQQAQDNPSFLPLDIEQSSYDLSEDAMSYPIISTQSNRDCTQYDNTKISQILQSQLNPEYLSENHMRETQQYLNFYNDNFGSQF
- EXPERIMENT: PBM E-score (8-mer binding enrichment) (E-score (-0.5 to 0.5)); higher = stronger / more preferred TF binding
- RUN_CONDITIONS: protein concentration: 200 nM; construct: GST-full length
Whole data set: some 33,000 sequences, median “E-score (-0.5 to 0.5)” near -0.016, cut for the highest 2% near 0.32. For the sample, the highest values were picked, then their nearest neighbours and some sequences at random.
OUTCOME_MEASURE: PBM E-score
Answer with a bare number; do not write a unit.

Some solved entries appear below for comparison.
>>> measurement("AAAACCTA")
0.0597
>>> measurement("AAGGGCGT")
0.0591

Switching to the query record.
Request: API: value(readout=PBM E-score, system=Stp1 (UniProt B3LFK1)) for record CGCCCTGA
Result: 0.0616

###

- SYSTEM_UNDER_TEST: Stp1 (UniProt B3LFK1)
- Sequence: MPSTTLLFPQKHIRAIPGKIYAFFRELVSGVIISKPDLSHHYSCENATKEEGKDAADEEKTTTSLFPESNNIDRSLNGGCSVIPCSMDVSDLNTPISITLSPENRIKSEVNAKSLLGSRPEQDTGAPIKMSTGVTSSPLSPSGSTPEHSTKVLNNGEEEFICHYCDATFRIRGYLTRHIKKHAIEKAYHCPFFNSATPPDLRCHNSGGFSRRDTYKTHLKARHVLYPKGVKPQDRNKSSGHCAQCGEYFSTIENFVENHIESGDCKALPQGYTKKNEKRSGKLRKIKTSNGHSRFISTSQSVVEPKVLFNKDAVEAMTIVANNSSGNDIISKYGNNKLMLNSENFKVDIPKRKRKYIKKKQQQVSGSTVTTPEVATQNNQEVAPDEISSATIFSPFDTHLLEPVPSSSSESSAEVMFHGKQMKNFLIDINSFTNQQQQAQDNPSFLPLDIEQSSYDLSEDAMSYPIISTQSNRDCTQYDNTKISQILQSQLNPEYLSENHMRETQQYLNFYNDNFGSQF
- EXPERIMENT: PBM E-score (8-mer binding enrichment) (E-score (-0.5 to 0.5)); higher = stronger / more preferred TF binding
- RUN_CONDITIONS: protein concentration: 200 nM; construct: GST-full length
Over roughly 33,000 sequences, “E-score (-0.5 to 0.5)” has its median near -0.016; the highest 2% begin near 0.32. For the sample, the highest values were picked, then their nearest neighbours and some sequences at random.
Is PBM E-score at least 0.08? Then Condition met. If not, Condition not met.

>>> class_name("TAGCCGAA")
"Condition not met"
>>> class_name("AAGCCGCA")
"Condition met"
>>> class_name("GAGCCGCA")
"Condition met"

Request: Is PBM E-score for ACAAGGGA at or above 0.08?
Result: Condition not met

Request: Please tell me: is the sequence ACGTGCCG at or over 0.08 in terms of PBM E-score?
Result: Condition met

Request: Identify whether the reported PBM E-score of the following sequence is 0.08 or greater: AAGACGGA
Result: Condition not met

Request: Hi team, for AGTGCCAA , is the recorded PBM E-score at or above 0.08?
Result: Condition not met

Request: Can AATCCGCG be said to have PBM E-score at or above 0.08?
Result: Condition met

Request: Hello, I need to know if ACGTTTAT has measured PBM E-score not below 0.08. Thanks!
Result: Condition met

Request: Answer whether PBM E-score of CAACGGTA is greater than or equal to 0.08.
Result: Condition not met

Request: Quick check, PBM E-score >= 0.08? CAGCGCCA
Result: Condition not met

Request: Decide: is the reported value of PBM E-score for ATGGTGCC equal to or greater than 0.08?
Result: Condition met

Request: Quick check, PBM E-score >= 0.08? AATCCTTC
Result: Condition not met

Request: Reported PBM E-score reaches at least 0.08 for AAGACGCC ?
Result: Condition met

Request: Would you say AAGCCGGA shows PBM E-score at minimum 0.08?
Result: Condition not met

Request: Exam item: decide whether the reported PBM E-score for ACGTGGCA is at least 0.08.
Result: Condition met

Request: Exam item: decide whether the reported PBM E-score for AAGCGCCG is at least 0.08.
Result: Condition met

Request: PBM E-score >= 0.08 for TAGCCGCA ?
Result: Condition met

Request: API: above_or_equal(metric=PBM E-score, cutoff=0.08) for item ATTGCCGA
Result: Condition met

Request: Please tell me: is the sequence CTTGCCGC at or over 0.08 in terms of PBM E-score?
Result: Condition met

Request: # bool: PBM E-score of ACGGTGCA >= 0.08
Result: Condition not met

Request: Reported PBM E-score at or above 0.08? GCGTGCCA
Result: Condition met

Request: Record AACCCGCA ; criterion: PBM E-score no lower than 0.08. Met?
Result: Condition not met

Request: Confirm if PBM E-score reported for the sequence AAGACGGT is 0.08 or above.
Result: Condition not met

Request: Could you verify whether the entry CTGGTGCC shows PBM E-score of no less than 0.08?
Result: Condition met
